meta.source: ChEMBL document CHEMBL1275492

Provide the reported MIC50 of each item.
# System: Streptococcus mitis
# EXPERIMENT DESCRIPTION: Antibacterial activity against Streptococcus mitis obtained from complicated skin and skin structure infections by agar dilution method
# Type: functional
Numbers only, in µg/mL.

{"SMILES REPRESENTATION": "CCC[C@@H]1C[C@@H](C(=O)N[C@@H]([C@H]2O[C@H](SC)[C@H](O)[C@@H](O)[C@H]2O)[C@H](C)Cl)N(C)C1", "MIC50 (µg/mL)": 2}
{"SMILES REPRESENTATION": "Cc1onc(-c2ccccc2)c1C(=O)N[C@@H]1C(=O)N2[C@@H]1SC(C)(C)[C@@H]2C(=O)O", "MIC50 (µg/mL)": 0.25}

Next molecule, please.
Given item Nc1nc(/C(=N/O)C(=O)N[C@@H]2C(=O)N3C(C(=O)O)=C(/C=C4\CCN([C@@H]5CCNC5)C4=O)CS[C@H]23)ns1 , the value recorded as its MIC50 is 0.06

----------
# Tested on: Morganella morganii
# EXPERIMENT DESCRIPTION: Antibacterial activity against Morganella morganii obtained from complicated skin and skin structure infections by agar dilution method
# Assay type: functional
Provide the reported MIC50 of each item.
Numbers only, in µg/mL.

{"MOLECULE": "O=C(O)c1cn(C2CC2)c2cc(N3CCNCC3)c(F)cc2c1=O [CIPROFLOXACIN]", "UNIT": "µg/mL", "MIC50": 0.12}

Next molecule, please.
Given item CO/N=C(\C(=O)N[C@@H]1C(=O)N2C(C(=O)O)=C(CSc3nc(=O)c(O)nn3C)CS[C@H]12)c1csc(N)n1 [CEFTRIAXONE] , the value recorded as its MIC50 is 0.03

----------
# Test system: Staphylococcus epidermidis
# EXPERIMENT DESCRIPTION: Antibacterial activity against coagulase-negative Staphylococcus epidermidis obtained from complicated skin and skin structure infections by agar dilution method
# Type: functional
OBSERVED PROPERTY: MIC90 (µg/mL)
Give bare numbers, in µg/mL.

{"COMPOUND": "CC(=O)NC[C@H]1CN(c2ccc(N3CCOCC3)c(F)c2)C(=O)O1 [LINEZOLID]", "UNIT": "µg/mL", "MIC90": 1}
{"COMPOUND": "CCC[C@@H]1C[C@@H](C(=O)N[C@@H]([C@H]2O[C@H](SC)[C@H](O)[C@@H](O)[C@H]2O)[C@H](C)Cl)N(C)C1 [CLINDAMYCIN]", "UNIT": "µg/mL", "MIC90": 1}
{"COMPOUND": "C[C@H]1COc2c(N3CCN(C)CC3)c(F)cc3c(=O)c(C(=O)O)cn1c23.C[C@H]1COc2c(N3CCN(C)CC3)c(F)cc3c(=O)c(C(=O)O)cn1c23.O [LEVOFLOXACIN]", "UNIT": "µg/mL", "MIC90": 8}

Next compound, please.
Form field MIC90 for item Nc1nc(/C(=N/O)C(=O)N[C@@H]2C(=O)N3C(C(=O)O)=C(/C=C4\CCN([C@@H]5CCNC5)C4=O)CS[C@H]23)ns1 [CEFTOBIPROLE] on Staphylococcus epidermidis: 1

----------
# Test system: Citrobacter braakii
# EXPERIMENT DESCRIPTION: Antibacterial activity against Citrobacter braakii obtained from complicated skin and skin structure infections by agar dilution method
# Assay type: functional
OBSERVED PROPERTY: MIC90 (µg/mL)
Give bare numbers, in µg/mL.

Worked set:
{"SMILES REPRESENTATION": "C[C@H]1COc2c(N3CCN(C)CC3)c(F)cc3c(=O)c(C(=O)O)cn1c23.C[C@H]1COc2c(N3CCN(C)CC3)c(F)cc3c(=O)c(C(=O)O)cn1c23.O", "UNIT": "µg/mL", "MIC90": 8}
{"SMILES REPRESENTATION": "CC(C)(O/N=C(\\C(=O)N[C@@H]1C(=O)N2C(C(=O)[O-])=C(C[n+]3ccccc3)CS[C@H]12)c1csc(N)n1)C(=O)O", "UNIT": "µg/mL", "MIC90": 16}

Each molecule below has a recorded value; state its MIC90.
1. NCC[C@H](O)C(=O)N[C@@H]1C[C@H](N)[C@@H](O[C@H]2O[C@H](CN)[C@@H](O)[C@H](O)[C@H]2O)[C@H](O)[C@H]1O[C@H]1O[C@H](CO)[C@@H](O)[C@H](N)[C@H]1O
2. CO/N=C(\C(=O)N[C@@H]1C(=O)N2C(C(=O)O)=C(CSc3nc(=O)c(O)nn3C)CS[C@H]12)c1csc(N)n1

## Output
1. 8
2. 64

----------
Provide the reported log10(MIC50) of each item.
# System: Pseudomonas aeruginosa
# EXPERIMENT DESCRIPTION: Antibacterial activity against Pseudomonas aeruginosa obtained from complicated skin and skin structure infections by agar dilution method
# Assay type: functional
// do not treat as linear: log10 of MIC50, unit µg/mL

Worked set:
{"MOLECULE": "CO/N=C(\\C(=O)N[C@@H]1C(=O)N2C(C(=O)O)=C(CSc3nc(=O)c(O)nn3C)CS[C@H]12)c1csc(N)n1 [CEFTRIAXONE]", "STUDY TARGET": "Pseudomonas aeruginosa", "OBSERVED PROPERTY": "log10(MIC50)", "VALUE OBSERVED": 1.81}
{"MOLECULE": "CO/N=C(\\C(=O)N[C@@H]1C(=O)N2C(C(=O)[O-])=C(C[N+]3(C)CCCC3)CS[C@H]12)c1csc(N)n1", "STUDY TARGET": "Pseudomonas aeruginosa", "OBSERVED PROPERTY": "log10(MIC50)", "VALUE OBSERVED": 0.60}
{"MOLECULE": "C[C@@H](O)[C@H]1C(=O)N2C(C(=O)O)=C(S[C@@H]3CN[C@H](C(=O)N(C)C)C3)[C@H](C)[C@H]12 [MEROPENEM]", "STUDY TARGET": "Pseudomonas aeruginosa", "OBSERVED PROPERTY": "log10(MIC50)", "VALUE OBSERVED": 0.60}
{"MOLECULE": "C[C@H]1COc2c(N3CCN(C)CC3)c(F)cc3c(=O)c(C(=O)O)cn1c23.C[C@H]1COc2c(N3CCN(C)CC3)c(F)cc3c(=O)c(C(=O)O)cn1c23.O [LEVOFLOXACIN]", "STUDY TARGET": "Pseudomonas aeruginosa", "OBSERVED PROPERTY": "log10(MIC50)", "VALUE OBSERVED": 0.60}
{"MOLECULE": "Nc1nc(/C(=N/O)C(=O)N[C@@H]2C(=O)N3C(C(=O)O)=C(/C=C4\\CCN([C@@H]5CCNC5)C4=O)CS[C@H]23)ns1 [CEFTOBIPROLE]", "STUDY TARGET": "Pseudomonas aeruginosa", "OBSERVED PROPERTY": "log10(MIC50)", "VALUE OBSERVED": 0.60}

Each molecule below has a recorded value; state its log10(MIC50).
1. O=C(O)c1cn(C2CC2)c2cc(N3CCNCC3)c(F)cc2c1=O [CIPROFLOXACIN]
2. NCC[C@H](O)C(=O)N[C@@H]1C[C@H](N)[C@@H](O[C@H]2O[C@H](CN)[C@@H](O)[C@H](O)[C@H]2O)[C@H](O)[C@H]1O[C@H]1O[C@H](CO)[C@@H](O)[C@H](N)[C@H]1O [AMIKACIN]
3. CC(C)(O/N=C(\C(=O)N[C@@H]1C(=O)N2C(C(=O)[O-])=C(C[n+]3ccccc3)CS[C@H]12)c1csc(N)n1)C(=O)O [CEFTAZIDIME]

## Output
1: 0.00; 2: 0.90; 3: 0.30

----------
# System: Streptococcus constellatus
# EXPERIMENT DESCRIPTION: Antibacterial activity against Streptococcus constellatus obtained from complicated skin and skin structure infections by agar dilution method
# Type: functional
OBSERVED PROPERTY: MIC50

Worked set:
{"SMILES REPRESENTATION": "C[C@H]1COc2c(N3CCN(C)CC3)c(F)cc3c(=O)c(C(=O)O)cn1c23.C[C@H]1COc2c(N3CCN(C)CC3)c(F)cc3c(=O)c(C(=O)O)cn1c23.O", "MIC50": "0.25 µg/mL"}
{"SMILES REPRESENTATION": "Nc1nc(/C(=N/O)C(=O)N[C@@H]2C(=O)N3C(C(=O)O)=C(/C=C4\\CCN([C@@H]5CCNC5)C4=O)CS[C@H]23)ns1", "MIC50": "0.06 µg/mL"}

Next compound, please.
Form field MIC50 for item CC(C)(O/N=C(\C(=O)N[C@@H]1C(=O)N2C(C(=O)[O-])=C(C[n+]3ccccc3)CS[C@H]12)c1csc(N)n1)C(=O)O on Streptococcus constellatus: 2 µg/mL

----------
# Test system: Staphylococcus hominis
# EXPERIMENT DESCRIPTION: Antibacterial activity against coagulase-negative Staphylococcus hominis obtained from complicated skin and skin structure infections by agar dilution method
# Format: functional
Provide the reported MIC90 of each item.
Answers are plain numbers, in µg/mL.

{"SMILES REPRESENTATION": "CC(=O)NC[C@H]1CN(c2ccc(N3CCOCC3)c(F)c2)C(=O)O1", "OBSERVED PROPERTY": "MIC90", "UNIT": "µg/mL", "VALUE OBSERVED": 1}
{"SMILES REPRESENTATION": "Nc1nc(/C(=N/O)C(=O)N[C@@H]2C(=O)N3C(C(=O)O)=C(/C=C4\\CCN([C@@H]5CCNC5)C4=O)CS[C@H]23)ns1", "OBSERVED PROPERTY": "MIC90", "UNIT": "µg/mL", "VALUE OBSERVED": 1}

Next compound, please.
Given item CCC[C@@H]1C[C@@H](C(=O)N[C@@H]([C@H]2O[C@H](SC)[C@H](O)[C@@H](O)[C@H]2O)[C@H](C)Cl)N(C)C1 , the value recorded as its MIC90 is 1
